Conditions: bacteroides fragilis, 12 h, 2 µM
Description: The drug is tested on Bacteroides fragilis strain: 3397 (T10) for biotransformation. The drug concentrations were measured before and after a 12-h incubation by liquid-chromatography-coupled mass spectrometry (LC–MS)
experimental.readout: Bacterial Biotransformation

Reference set, count: 5
Request: # query: Bacterial Biotransformation of entry CCCN1C[C@H](CSC)C[C@@H]2c3cccc4[nH]cc(c34)C[C@H]21.CS(=O)(=O)O [PERGOLIDE MESYLATE]
Result: Compound NOT metabolized

Request: # query: Bacterial Biotransformation of entry CCOc1ccc2nc(S(N)(=O)=O)sc2c1 [ETHOXZOLAMIDE]
Result: Compound metabolized

Request: # query: Bacterial Biotransformation of entry O=C(NC(Cc1cc(=O)[nH]c2ccccc12)C(=O)O)c1ccc(Cl)cc1 (stereo not drawn) [REBAMIPIDE]
Result: Compound NOT metabolized

Request: # query: Bacterial Biotransformation of entry COc1ccc(CN2CCNCC2)c(OC)c1OC.Cl.Cl [TRIMETAZIDINE DIHYDROCHLORIDE]
Result: Compound metabolized

Request: # query: Bacterial Biotransformation of entry O=C1CC2(CCCC2)CC(=O)N1CCCCN1CCN(c2ncccn2)CC1 [BUSPIRONE]
Result: Compound NOT metabolized

New cases:
Request: # query: Bacterial Biotransformation of entry CN1CCc2c(c3ccccc3n2Cc2ccccc2)C1.CN1CCc2c(c3ccccc3n2Cc2ccccc2)C1.O=S(=O)(O)c1cccc2c(S(=O)(=O)O)cccc12
Result: Compound NOT metabolized

Request: # query: Bacterial Biotransformation of entry COc1ccc(Cc2nccc3cc(OC)c(OC)cc23)cc1OC [PAPAVERINE]
Result: Compound NOT metabolized

Request: # query: Bacterial Biotransformation of entry N=C(N)NC(=O)Cc1c(Cl)cccc1Cl [GUANFACINE]
Result: Compound NOT metabolized

* * *

Test: The drug is tested on Clostridium ramosum strain: DSM1402 for biotransformation. The drug concentrations were measured before and after a 12-h incubation by liquid-chromatography-coupled mass spectrometry (LC–MS)
Conditions: thomasclavelia ramosa, 2 µM
experimental.readout: Bacterial Biotransformation

Reference set, count: 5
Request: # query: Bacterial Biotransformation of entry CN1CCN(C(=O)O[C@H]2c3nccnc3C(=O)N2c2ccc(Cl)cn2)CC1
Result: Compound NOT metabolized

Request: # query: Bacterial Biotransformation of entry COC(=O)Nc1nc2ccc(C(=O)c3ccccc3)cc2[nH]1
Result: Compound NOT metabolized

Request: # query: Bacterial Biotransformation of entry CC(=O)OCC(=O)NCCCOc1cccc(CN2CCCCC2)c1 [ROXATIDINE ACETATE]
Result: Compound metabolized

Request: # query: Bacterial Biotransformation of entry O=c1[nH]c2ccccc2n1C1CCN(CCCC(c2ccc(F)cc2)c2ccc(F)cc2)CC1 [PIMOZIDE]
Result: Compound NOT metabolized

Request: # query: Bacterial Biotransformation of entry C#C[C@]1(O)CC[C@H]2[C@@H]3CCC4=Cc5oncc5C[C@]4(C)[C@H]3CC[C@@]21C
Result: Compound metabolized

New cases:
Request: # query: Bacterial Biotransformation of entry Clc1ccc(Cn2c(CN3CCCC3)nc3ccccc32)cc1
Result: Compound NOT metabolized

Request: # query: Bacterial Biotransformation of entry CCN(CC)CCOC(=O)C(Cc1cccc2ccccc12)CC1CCCO1.O=C(O)C(=O)O (stereo unspecified) [NAFRONYL OXALATE]
Result: Compound NOT metabolized

Request: # query: Bacterial Biotransformation of entry CC(=O)CC(c1ccccc1)c1c(O)c2ccccc2oc1=O (stereo unspecified)
Result: Compound NOT metabolized

* * *

Test: The drug is tested on Eubacterium rectale strain: ATCC33656 for biotransformation. The drug concentrations were measured before and after a 12-h incubation by liquid-chromatography-coupled mass spectrometry (LC–MS)
Conditions: agathobacter rectalis, 2 µM
Non-standard residues stand in square brackets, D forms with d. Residues, ends and D or L forms follow the SMILES beside them. pGlu = O=C1CC[C@@H](C(=O)O)N1; Thz = O=C(O)[C@@H]1CSCN1
experimental.readout: Bacterial Biotransformation

Request: # query: Bacterial Biotransformation of entry CC(C)(C)NCC(O)c1cc(Cl)c(N)c(Cl)c1 (stereo not given)
Result: Compound NOT metabolized

Request: # query: Bacterial Biotransformation of entry O=C(O)c1cc(/N=N/c2ccc(S(=O)(=O)Nc3ccccn3)cc2)ccc1O
Result: Compound metabolized

Request: # query: Bacterial Biotransformation of entry C[C@]12C=CC(=O)C=C1CC[C@@H]1[C@@H]2C(=O)C[C@@]2(C)[C@H]1CC[C@]2(O)C(=O)CO
Result: Compound NOT metabolized

Request: # query: Bacterial Biotransformation of entry COc1ccc([C@@H]2Sc3ccccc3N(CCN(C)C)C(=O)[C@@H]2OC(C)=O)cc1
Result: Compound NOT metabolized

Request: # query: Bacterial Biotransformation of entry CCN(CC)CCNC(=O)c1ccc(NC(C)=O)cc1 [ACECAINIDE]
Result: Compound NOT metabolized

Request: # query: Bacterial Biotransformation of entry N[C@@H](Cc1ccc(N(CCCl)CCCl)cc1)C(=O)O
Result: Compound metabolized

Request: # query: Bacterial Biotransformation of entry COCCc1ccc(OCC(O)CNC(C)C)cc1.COCCc1ccc(OCC(O)CNC(C)C)cc1.O=C(O)C(O)C(O)C(=O)O (stereo not given) [METOPROLOL TARTRATE]
Result: Compound NOT metabolized

Request: # query: Bacterial Biotransformation of entry CS(=O)(=O)O.OC(CCN1CCCCC1)(c1ccccc1)c1ccccc1 [PRIDINOL METHANESULFONATE]
Result: Compound NOT metabolized

New cases:
Request: # query: Bacterial Biotransformation of entry Cc1ccc(-c2cc(C(F)(F)F)nn2-c2ccc(S(N)(=O)=O)cc2)cc1
Result: Compound NOT metabolized

Request: # query: Bacterial Biotransformation of entry CCCC(=O)Nc1ccc(OCC(O)CNC(C)C)c(C(C)=O)c1 (stereo not given)
Result: Compound NOT metabolized

Request: # query: Bacterial Biotransformation of entry CC[C@H](C)C(=O)O[C@H]1CCC=C2C=C[C@H](C)[C@H](CC[C@@H]3C[C@@H](O)CC(=O)O3)[C@H]21
Result: Compound metabolized

Request: # query: Bacterial Biotransformation of entry Cc1cc2c(cc1S(N)(=O)=O)S(=O)(=O)CCC2
Result: Compound NOT metabolized

Request: # query: Bacterial Biotransformation of entry CN(C)CCc1c[nH]c2ccc(CS(=O)(=O)N3CCCC3)cc12
Result: Compound NOT metabolized

Request: # query: Bacterial Biotransformation of entry CCC1(c2ccc(N)cc2)CCC(=O)NC1=O (stereo not given) [AMINOGLUTETHIMIDE]
Result: Compound NOT metabolized

Request: # query: Bacterial Biotransformation of entry O=C1CC[C@@H](C(=O)N2CSC[C@H]2C(=O)O)N1 [PIDOTIMOD] ([pGlu]-[Thz]-OH)
Result: Compound NOT metabolized

Request: # query: Bacterial Biotransformation of entry COc1ccc2c(c1)c(CC(=O)O)c(C)n2C(=O)c1ccc(Cl)cc1
Result: Compound NOT metabolized

Request: # query: Bacterial Biotransformation of entry CN(C)CCC=C1c2ccccc2COc2ccccc21 [DOXEPIN]
Result: Compound NOT metabolized

Request: # query: Bacterial Biotransformation of entry O=C(O)CCc1nc(-c2ccccc2)c(-c2ccccc2)o1
Result: Compound NOT metabolized

Request: # query: Bacterial Biotransformation of entry C=CCc1ccccc1OCC(O)CNC(C)C (stereo not given)
Result: Compound NOT metabolized

Request: # query: Bacterial Biotransformation of entry CCc1oc2ccccc2c1C(=O)c1cc(Br)c(O)c(Br)c1
Result: Compound NOT metabolized

Request: # query: Bacterial Biotransformation of entry O=C(CCCN1CCC(O)(c2ccc(Cl)cc2)CC1)c1ccc(F)cc1
Result: Compound NOT metabolized

Request: # query: Bacterial Biotransformation of entry CN1[C@@H]2CC[C@H]1C[C@@H](OC(=O)c1c[nH]c3ccccc13)C2
Result: Compound NOT metabolized

Request: # query: Bacterial Biotransformation of entry CN1C(C(=O)Nc2ccccn2)=C(O)c2sccc2S1(=O)=O
Result: Compound NOT metabolized

Request: # query: Bacterial Biotransformation of entry Cc1cc(C)cc(OCC2CNC(=O)O2)c1 (stereo not given)
Result: Compound NOT metabolized

Request: # query: Bacterial Biotransformation of entry COc1ccc(C(CN(C)C)C2(O)CCCCC2)cc1 (stereo not given)
Result: Compound NOT metabolized

* * *

Details: roseburia intestinalis, 12 h, 2 µM
Description: The drug is tested on Roseburia intestinalis strain: L1-82 for biotransformation. The drug concentrations were measured before and after a 12-h incubation by liquid-chromatography-coupled mass spectrometry (LC–MS)
Non-standard residues stand in square brackets, D forms with d. Residues, ends and D or L forms follow the SMILES beside them. pGlu = O=C1CC[C@@H](C(=O)O)N1; Thz = O=C(O)[C@@H]1CSCN1
experimental.readout: Bacterial Biotransformation

Reference set, count: 4
Request: # query: Bacterial Biotransformation of entry O=C(O)c1cc(/N=N/c2ccc(S(=O)(=O)Nc3ccccn3)cc2)ccc1O
Result: Compound metabolized

Request: # query: Bacterial Biotransformation of entry CN(C)CCOC(c1ccc(Cl)cc1)c1ccccn1.O=C(O)/C=C\C(=O)O (centres undefined) [CARBINOXAMINE MALEATE]
Result: Compound NOT metabolized

Request: # query: Bacterial Biotransformation of entry CN1[C@@H]2CC[C@H]1C[C@@H](OC(=O)c1c[nH]c3ccccc13)C2
Result: Compound NOT metabolized

Request: # query: Bacterial Biotransformation of entry O=C1CC[C@@H](C(=O)N2CSC[C@H]2C(=O)O)N1 [PIDOTIMOD] ([pGlu]-[Thz]-OH)
Result: Compound NOT metabolized

New cases:
Request: # query: Bacterial Biotransformation of entry CC(=O)SCC(Cc1ccccc1)C(=O)NCC(=O)OCc1ccccc1 (centres undefined)
Result: Compound metabolized

Request: # query: Bacterial Biotransformation of entry Cc1ccnc2c1NC(=O)c1cccnc1N2C1CC1
Result: Compound NOT metabolized

Request: # query: Bacterial Biotransformation of entry O=c1[nH]c2ccccc2n1C1CCN(CCCC(c2ccc(F)cc2)c2ccc(F)cc2)CC1 [PIMOZIDE]
Result: Compound NOT metabolized

Request: # query: Bacterial Biotransformation of entry CC(C)N(CCC(C(N)=O)(c1ccccc1)c1ccccn1)C(C)C.O=P(O)(O)O (centres undefined) [DISOPYRAMIDE PHOSPHATE]
Result: Compound NOT metabolized

Request: # query: Bacterial Biotransformation of entry CC(C(=O)O)c1ccc2c(c1)Cc1cccnc1O2 (centres undefined)
Result: Compound NOT metabolized

Request: # query: Bacterial Biotransformation of entry CC(C)(C)N.CCC[C@H](N[C@@H](C)C(=O)N1[C@H](C(=O)O)C[C@@H]2CCCC[C@@H]21)C(=O)OCC
Result: Compound NOT metabolized

Request: # query: Bacterial Biotransformation of entry CCN(CC)CCNC(=O)c1ccc(NC(C)=O)cc1 [ACECAINIDE]
Result: Compound NOT metabolized

Request: # query: Bacterial Biotransformation of entry COC(=O)[C@H]1[C@H]2C[C@@H]3c4[nH]c5cc(OC)ccc5c4CCN3C[C@H]2C[C@@H](OC(=O)c2cc(OC)c(OC)c(OC)c2)[C@@H]1OC
Result: Compound NOT metabolized

Request: # query: Bacterial Biotransformation of entry C[C@@H]1CC[C@H]2[C@@H](C)C(=O)O[C@@H]3O[C@@]4(C)CC[C@@H]1[C@]32OO4
Result: Compound metabolized

Request: # query: Bacterial Biotransformation of entry CC(N)C12CC3CC(CC(C3)C1)C2 (centres undefined)
Result: Compound NOT metabolized

Request: # query: Bacterial Biotransformation of entry OCCOCCN1CCN(C2=Nc3ccccc3Sc3ccccc32)CC1
Result: Compound NOT metabolized

Request: # query: Bacterial Biotransformation of entry O=C(NCc1ccccc1)OCCO [BURAMATE]
Result: Compound NOT metabolized

Request: # query: Bacterial Biotransformation of entry CN1CCc2cccc3c2[C@H]1Cc1ccc(O)c(O)c1-3
Result: Compound NOT metabolized
